These measurements were taken from paper PMC11571109.

Give IC50 for every item shown.
Target: UniProtKB P26447
Assay: HTRF (TR-FRET) peptide displacement S100A4-NMII (MPN peptide)
Assay type: binding
Set-up: made in house; host or cells: E. coli Rosetta (DE3); peptide from LifeTein
Details: supplementary CSV; read-out: S100A4 IC50 HTRF assay
// unit must come after the numeric part

Entry under review: O=C(CCl)Nc1cccc(CN(CCc2cnn(-c3nccc4c(=O)[nH]cnc34)c2)C2CCCC2)c1 . Reported IC50? 2400 nM

Fill in: IC50 of O=C(Nc1cccc(Cl)c1)[C@H]1C[C@H](c2ccccc2)CN1C(=O)CCl [5a] is ___ 4220 nM

What value of measured IC50 is listed for CN1CCCC(NC(=O)[C@H]2C[C@H](c3ccccc3)CN2C(=O)CCl)C1=O (some centres unmarked) ? 1050 nM

For CC(C)c1c(-c2ccc(OCCNC(=O)/C=C/C(=O)c3ccccc3)cc2)[nH]c2c(C#N)cnn2c1=O , what is its reported IC50? 430 nM

Recorded IC50 for CC(C)C[C@@H](NC(=O)[C@H]1C[C@H](c2ccccc2)CN1C(=O)CCl)c1nc2ccccc2[nH]1 , please? 770 nM

Give the measured IC50 of O=C1Nc2ccccc2C1NC(=O)[C@H]1C[C@H](c2ccccc2)CN1C(=O)CCl (some centres unmarked) . 3250 nM

Fill in: IC50 of N#CCc1ccc(NC(=O)[C@H]2C[C@H](c3ccccc3)CN2C(=O)CCl)cc1 is ___ 1240 nM

Record request: IC50 value, item CC(C)c1c(-c2cnn(CCNC(=O)/C=C/C(=O)c3ccccc3)c2)[nH]c2c(C#N)cnn2c1=O 1790 nM

---

Assay: Metabolic stability in mouse liver microsomes (MLM)
Type: in vitro ADME
Details: mouse liver microsomes; read-out: MLM, T1/2
measurement-label: half-life (min)
Note: unit min is implicit; provide only the numeric part.

# get_value(readout='half-life', item= O=C(Nc1cccc(Cl)c1)[C@H]1C[C@H](c2ccccc2)CN1C(=O)CCl ) 4

# query: half-life of entry O=C(NC1CCCc2ccccc21)[C@H]1C[C@H](c2ccccc2)CN1C(=O)CCl (stereo partly drawn) 2

Give the measured half-life of CC(C)C[C@@H](NC(=O)[C@H]1C[C@H](c2ccccc2)CN1C(=O)CCl)c1nc2ccccc2[nH]1 . 7

---

Tested on: P-gp (MDR1)
Test: Cell permeability MDR1-MDCK II
Type: in vitro ADME
Conditions: dog, MDCK-MDR1, A to B; read-out: MDR1-MDCK II, AB Papp
measurement-label: Papp

Quick one: Papp of CC(C)C[C@@H](NC(=O)[C@H]1C[C@H](c2ccccc2)CN1C(=O)CCl)c1nc2ccccc2[nH]1 ? 12.6 ×10⁻⁶ cm/s

---

Biological target: S100A4 (Homo sapiens, UniProt P26447)
Sequence (P26447 whole entry): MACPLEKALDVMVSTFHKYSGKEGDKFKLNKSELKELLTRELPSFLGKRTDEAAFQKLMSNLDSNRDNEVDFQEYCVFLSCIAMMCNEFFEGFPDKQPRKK
Assay: Protein labeling detection by mass spectrometry, S100A4
Settings: 10 μM S100A4, 100 μM inhibitor, 1 h
measurement-label: S100A4 covalent modification pattern (in words)

CC(C)C[C@@H](NC(=O)[C@H]1C[C@H](c2ccccc2)CN1C(=O)CCl)c1nc2ccccc2[nH]1 | single shifts
O=C(Nc1cccc(Cl)c1)[C@H]1C[C@H](c2ccccc2)CN1C(=O)CCl | single shifts
